Sequence of the target: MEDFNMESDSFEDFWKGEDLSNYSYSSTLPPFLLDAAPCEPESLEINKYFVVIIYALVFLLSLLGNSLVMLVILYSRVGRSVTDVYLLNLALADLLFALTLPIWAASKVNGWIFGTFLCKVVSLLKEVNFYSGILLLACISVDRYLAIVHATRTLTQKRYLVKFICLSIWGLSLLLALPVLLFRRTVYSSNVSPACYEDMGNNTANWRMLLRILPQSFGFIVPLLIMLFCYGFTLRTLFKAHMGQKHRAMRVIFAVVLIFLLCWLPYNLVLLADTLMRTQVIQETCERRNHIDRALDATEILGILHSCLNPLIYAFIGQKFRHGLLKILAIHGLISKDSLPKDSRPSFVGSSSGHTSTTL
MEASURED_PROPERTY: Ki (nM)
Note: unit nM is implicit; provide only the numeric part.

A selection of reference data follows.
MOLECULE	UNIT_INFO	Ki
CC(C)C[C@H](CO)Nc1nc(SCc2ccccc2Cl)nc2nc(N)sc12 [reference compound]	nM	1810
CCC[C@H](CO)Nc1nc(SCc2ccccc2)nc2nc(N)sc12 [reference compound]	nM	540
CC(C)C[C@H](CO)Nc1nc(SC(C)c2ccccc2)nc2nc(N)sc12 (some centres unmarked)	nM	3430

Data request: Input CC(C)C[C@H](CO)Nc1nc(SCc2ccccc2)nc2nc(N)sc12 [reference compound] , output reported Ki.
Data returned: 531

Data request: Specify Ki for CC(C)C[C@H](CO)Nc1nc(SCc2cccc(C#N)c2)nc2nc(N)sc12 [reference compound] and stop.
Data returned: 1980

---

# pKi per entry
# TEST_TARGET: CX3CR1 (Homo sapiens, UniProt P49238)
# Construct: membranes
# Sequence (P49238 whole entry): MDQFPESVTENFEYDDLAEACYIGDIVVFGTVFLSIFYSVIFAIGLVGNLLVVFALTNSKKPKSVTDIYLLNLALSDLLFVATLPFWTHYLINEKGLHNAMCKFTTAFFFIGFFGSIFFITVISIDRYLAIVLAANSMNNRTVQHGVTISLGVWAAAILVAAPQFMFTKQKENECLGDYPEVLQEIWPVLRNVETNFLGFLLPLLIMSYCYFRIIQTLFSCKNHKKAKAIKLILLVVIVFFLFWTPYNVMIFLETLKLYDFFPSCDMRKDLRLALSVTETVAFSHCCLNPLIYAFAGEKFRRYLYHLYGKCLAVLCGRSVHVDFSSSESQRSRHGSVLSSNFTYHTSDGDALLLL
# ASSAY_NAME: [125I]-fractalkine competition receptor binding assay on hCX3CR1 membranes
# CONDITION_PARAMETERS: 25° C. for 24 h
On this scale, pKi is minus log10 of a concentration expressed in M (mol/L).

MOLECULE	MEAS_VALUE
CCC[C@H](CO)Nc1nc(SCc2ccccc2)nc2nc(N)sc12 [reference compound]	6.23
CCC(Sc1nc(N[C@@H](CO)CC(C)C)c2sc(N)nc2n1)c1ccccc1 (stereo partly drawn)	8.51
CC(C)C[C@H](CO)Nc1nc(SCc2cccc(C#N)c2)nc2nc(N)sc12 [reference compound]	6.81
CC(C)C[C@H](CO)Nc1nc(S[C@@H](C)c2cccc(C#N)c2)nc2nc(N)sc12	7.85
CC(C)C[C@H](CO)Nc1nc(SCc2ccccc2Cl)nc2nc(N)sc12 [reference compound]	7.29

Data request: Indicate its recorded pKi; the molecule in question is CC(C)C[C@H](CO)Nc1nc(SCc2ccccc2)nc2nc(N)sc12 [reference compound]
Data returned: 7.32

Data request: In one line, give reported pKi of the entry CCC[C@H](CO)Nc1nc(S[C@@H](C)c2ccccc2)nc2nc(N)sc12 .
Data returned: 7.28

Data request: Note pKi for the molecule shown: CC(C)C[C@H](CO)Nc1nc(SC(C)c2ccccc2Cl)nc2nc(N)sc12 (stereo partly drawn)
Data returned: 8.23

Data request: Please report pKi for the following molecule: CC(C)C[C@H](CO)Nc1nc(SC(C)c2ccccc2)nc2nc(N)sc12 (stereo partly drawn)
Data returned: 8.42
